tgt: human ether-à-go-go-related gene (hERG) potassium channel (human, UniProt Q12809)
Sequence (Q12809 whole entry, looked up): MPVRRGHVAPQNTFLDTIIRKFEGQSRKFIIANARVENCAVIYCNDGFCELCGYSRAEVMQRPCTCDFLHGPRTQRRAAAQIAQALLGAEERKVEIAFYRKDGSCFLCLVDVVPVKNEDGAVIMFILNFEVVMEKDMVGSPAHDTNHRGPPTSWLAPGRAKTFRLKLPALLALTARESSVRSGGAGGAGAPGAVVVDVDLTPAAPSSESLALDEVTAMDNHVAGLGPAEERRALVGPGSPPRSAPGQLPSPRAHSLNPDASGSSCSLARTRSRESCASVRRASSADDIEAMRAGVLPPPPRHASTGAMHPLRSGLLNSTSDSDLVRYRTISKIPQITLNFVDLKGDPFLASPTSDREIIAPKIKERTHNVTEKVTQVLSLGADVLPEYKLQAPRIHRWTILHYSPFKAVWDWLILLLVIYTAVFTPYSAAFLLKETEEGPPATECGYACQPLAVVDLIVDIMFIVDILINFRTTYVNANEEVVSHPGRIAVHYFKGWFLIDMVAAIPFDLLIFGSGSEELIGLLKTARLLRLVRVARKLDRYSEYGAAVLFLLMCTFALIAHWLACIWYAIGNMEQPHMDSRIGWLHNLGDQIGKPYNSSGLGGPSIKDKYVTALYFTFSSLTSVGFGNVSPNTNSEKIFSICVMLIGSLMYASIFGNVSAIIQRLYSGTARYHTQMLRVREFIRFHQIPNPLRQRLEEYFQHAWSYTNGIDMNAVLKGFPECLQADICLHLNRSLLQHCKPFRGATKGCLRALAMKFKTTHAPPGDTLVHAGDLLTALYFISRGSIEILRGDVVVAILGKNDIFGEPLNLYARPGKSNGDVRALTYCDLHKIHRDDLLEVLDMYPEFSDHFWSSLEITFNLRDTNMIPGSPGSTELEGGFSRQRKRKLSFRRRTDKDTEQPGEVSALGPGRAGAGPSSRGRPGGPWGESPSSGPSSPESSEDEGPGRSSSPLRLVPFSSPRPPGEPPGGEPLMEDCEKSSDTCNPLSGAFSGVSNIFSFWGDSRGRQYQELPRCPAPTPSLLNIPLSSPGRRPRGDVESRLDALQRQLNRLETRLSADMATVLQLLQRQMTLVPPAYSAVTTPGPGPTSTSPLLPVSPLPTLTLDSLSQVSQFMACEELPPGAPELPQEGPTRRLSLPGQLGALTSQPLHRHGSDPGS
assaySummary: primary screen, population patch clamp on CHO cells stably expressing hERG; higher = less effect of the substance;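 note: peak tail current of the secondary pulse compared with the same well before compound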
In all, about 310,000 compounds went through this assay and about 14,000 (4.5%) showed an effect of 50% or more. Effects have a minus sign here. Only a selection was taken, and strong results are over-represented in it overall.
Assign class by hERG current change (%, negative = inhibition) at 10uM: not lower than -20% means true (1); lower than -20% means false (0).

compound | classification
CS(=O)(=O)N1N=C(c2cccs2)CC1c1ccccc1 (centres unmarked) | true (1)
CS(=O)(=O)N1N=C(c2ccc3nccnc3c2)CC1c1ccccc1 (centres unmarked) | true (1)
O=C(COC(=O)Cc1cccc2ccccc12)Nc1ccccc1-c1ccccc1 | true (1)
COCC1CCCN(C(=O)c2ccc3oc(Cc4ccc(Cl)cc4)nc3c2)C1 (centres unmarked) | false (0)
COc1cccc(CC(=O)OCC(=O)N2CCN(c3ccc(F)cc3)CC2)c1 | false (0)
COc1cccc(N2CCN(C(=O)CCSCc3ccccc3F)CC2)c1 | false (0)
O=C(OCC#CCSc1nnc(-c2ccccc2)o1)c1cccs1 | true (1)
CC1(C)C(=O)Nc2ccccc2N1C(=O)COC(=O)Cc1c(F)cccc1Cl | false (0)
COc1ccc(N2CCN(C(=O)CCSCc3ccccc3F)CC2)cc1 | false (0)
O=C(OCC#CCSc1nnc(-c2ccncc2)o1)c1cccs1 | false (0)
CS(=O)(=O)Nc1ccc(C2=NN(S(C)(=O)=O)C(c3ccccc3)C2)cc1 (centres unmarked) | false (0)
CCc1ccc(OCC(=O)NNC(=O)c2cnccn2)c(Br)c1 | true (1)
CCS(=O)(=O)N1N=C(c2ccc(NS(C)(=O)=O)cc2)CC1c1ccccc1 (centres unmarked) | false (0)
COc1ccc(N2CCN(C(=O)COC(=O)Cc3c(F)cccc3Cl)CC2)cc1 | false (0)
CC1(C)C(=O)Nc2ccccc2N1C(=O)COC(=O)CSc1ccc(Cl)cc1 | true (1)
CC(C)C(NC(=O)C1CCC(C(C)(C)C)CC1)C(=O)NCCc1ccc(S(N)(=O)=O)cc1 (centres unmarked) | true (1)
COc1cc(/C=N/NC(=O)CCOc2ccccc2C)cc(Br)c1O | true (1)
COc1ccccc1N1CCN(C(=O)CCSCc2ccccc2F)CC1 | true (1)
